Values compiled from ChEMBL document CHEMBL3244174.

- Test system: Rodentolepis nana
- test.name: Anthelmintic activity against viable ova stage of Hymenolepis nana infected in rat assessed as decrease in intestinal worm load at 250 mg/kg, po measured on day 3
- Type: functional, organism-based
- Parameters: dose 250 mg/kg
Active and inactive are the calls of the source. No cut-off for these calls is given here.
value.kind: Activity

Could you please provide reported Activity for Cc1cc(OCCCC[N+](C)(C)Cc2ccc(Br)o2)c(C(C)C)cc1Cl.[Br-] ? Thanks! inactive

Could you please provide reported Activity for C[N+](C)(CCCCCCOc1c(Br)cc(Br)cc1Br)Cc1ccc(Br)o1.[Br-] ? Thanks! inactive

Could you please provide reported Activity for C[N+](C)(CCCCCCOc1c(Br)cc(Br)cc1Br)Cc1ccc([N+](=O)[O-])o1.[Br-] ? Thanks! inactive

Could you please provide reported Activity for Cc1cc(OCCCCC[N+](C)(C)Cc2ccc(Br)o2)c(C(C)C)cc1Cl.[Br-] ? Thanks! inactive

Could you please provide reported Activity for C[N+](C)(CCCCOc1c(Br)cc(Br)cc1Br)Cc1ccc(Br)o1.[Br-] ? Thanks! inactive

New cases:
Could you please provide reported Activity for Cc1cc(OCCCCC[N+](C)(C)Cc2ccc([N+](=O)[O-])o2)c(C(C)C)cc1Cl.[Br-] ? Thanks! inactive

Could you please provide reported Activity for Cc1cc(OCCCC[N+](C)(C)Cc2ccc([N+](=O)[O-])o2)c(C(C)C)cc1Cl.[Br-] ? Thanks! inactive

Could you please provide reported Activity for C[N+](C)(CCCCCOc1c(Br)cc(Br)cc1Br)Cc1ccc(Br)o1.[Br-] ? Thanks! inactive
